# System: N140
# Procedure summary: qHTS profiling for inhibitors of Plasmodium falciparum proliferation (AID 504749); further: nearly all actives have a fitted effect of over 60% in size
# Experimental conditions: P. falciparum in erythrocytes, SYBR Green DNA, 72 h; series mostly up to 28.7 µM
Inconclusive results are not listed. Calls of active or inactive are those of the source. The call rests on the fitted dose curve; in most records, active means well fitted inhibition curve with a large enough effect; inconclusive means small, poorly fitted or top-dose-only effect; inactive means flat fitted curve, though single readings scatter.
Choose the fitting class; nothing outside y (active), n (inactive) is accepted.

Ask: Test call, this molecule: N=C(N)c1ccc(OCCCCCOc2ccc(C(=N)N)cc2)cc1
Reply: y

Ask: Just curious, what result did N[C@@H](C(=O)N[C@@H]1C(=O)N2C(C(=O)O)=C(Cl)CS[C@H]12)c1ccccc1 get here?
Reply: n

Ask: I would be grateful if you could indicate the recorded call for CNC(=O)c1cc(Oc2ccc(NC(=O)Nc3ccc(Cl)c(C(F)(F)F)c3)cc2)ccn1 .
Reply: y

Ask: What classification did CCc1cc(C(N)=S)ccn1 end up with in this test?
Reply: n

Ask: Look up the recorded call for CC1=NN(c2ccccc2)C(=O)C1 in this test.
Reply: n

Ask: Recorded test outcome, item COc1cnc(NS(=O)(=O)c2ccc(N)cc2)nc1
Reply: n
